# test-summary: The drug is tested on Eubacterium rectale strain: ATCC33656 for biotransformation. The drug concentrations were measured before and after a 12-h incubation by liquid-chromatography-coupled mass spectrometry (LC–MS)
# experimental-conditions: agathobacter rectalis, 2 µM
parameter-measured: Bacterial Biotransformation

Below: 6 molecules and their reported Bacterial Biotransformation.
| molecule | readout-value |
| --- | --- |
| O=c1[nH]c2ccccc2n1C1CCN(CCCC(c2ccc(F)cc2)c2ccc(F)cc2)CC1 [PIMOZIDE] | Compound NOT metabolized |
| CC(C)(C#N)c1cc(Cn2cncn2)cc(C(C)(C)C#N)c1 | Compound NOT metabolized |
| COc1ccccc1OCCNCC(O)COc1cccc2[nH]c3ccccc3c12 (stereo not drawn) | Compound NOT metabolized |
| C[C@]12CCC(=O)C=C1[C@@H]1C[C@@H]1[C@H]1[C@@H]3[C@@H]4C[C@@H]4[C@@]4(CCC(=O)O4)[C@@]3(C)CC[C@@H]12 | Compound NOT metabolized |
| Clc1cccc(Cl)c1N=C1NCCN1 | Compound NOT metabolized |
| CCCCc1nc(Cl)c(CO)n1Cc1ccc(-c2ccccc2-c2nn[nH]n2)cc1 | Compound NOT metabolized |

Q. Input COc1ccccc1N1CCN(CC(O)COc2cccc3ccccc23)CC1 (stereo not drawn) , output reported Bacterial Biotransformation.
A. Compound NOT metabolized

Data provenance is ChEMBL document CHEMBL5303573.
